Reported values: pKi for 5-hydroxytryptamine receptor 7 (Homo sapiens), one per item.
// pKi here means minus log10 of the molar concentration (mol/L)

Compound: CC(Oc1cc(Cl)cc(Cl)c1)c1nc(N)nc(N2CCN(C)CC2)n1 (racemic)
pKi: 5.03

stdin: Missing value: pKi, 5-hydroxytryptamine receptor 7 (Homo sapiens), entry CCCCC(Oc1cc(Cl)ccc1Cl)c1nc(N)nc(N2CCN(C)CC2)n1 (racemic) . Fill in?
stdout: 5.20

stdin: Missing value: pKi, 5-hydroxytryptamine receptor 7 (Homo sapiens), entry CCCC(Oc1cc(Cl)ccc1Cl)c1nc(N)nc(N2CCN(C)CC2)n1 (racemic) . Fill in?
stdout: 4.90
